The values you see were collected from the supplement of paper PMC10515830.

- System: Danio rerio larvae (5 dpf)
- Measurement description: difference in startle response vs DMSO (percentage points); higher = stronger startle than DMSO
- Test context: 10 µM; exposure time 6 h
Where a name gives a salt, the structure may show the parent alone.
Quantity kind: difference in startle response

Compound: CC[C@H]1OC(=O)[C@H](C)[C@@H](O[C@H]2C[C@@](C)(OC)[C@@H](O)[C@H](C)O2)[C@H](C)[C@@H](O[C@@H]2O[C@H](C)C[C@H](N(C)C)[C@H]2O)[C@](C)(O)C[C@@H](C)C(=O)[C@H](C)[C@@H](O)[C@]1(C)O
Observed result: -6.73
--
Compound: COc1ccc2c(O[C@@H]3C[C@H]4C(=O)N[C@]5(C(=O)NS(=O)(=O)C6CC6)C[C@H]5/C=C\CCCCN(C)C(=O)[C@@H]4C3)cc(-c3nc(C(C)C)cs3)nc2c1C [Simeprevir (sodium salt)]
Observed result: -3.43
--
Compound: CCCCC[C@H](O)/C=C/[C@H]1[C@H](O)CC(=O)[C@@H]1CCCCCCC(=O)O [Prostaglandin E1]
Observed result: -3.01
--
Compound: CCCN1CCCC[C@H]1C(=O)Nc1c(C)cccc1C [(-)-Ropivacaine (hydrochloride hydrate)]
Observed result: -2.15
--
Compound: FC(F)OC(Cl)C(F)(F)F (stereo unspecified)
Observed result: 8.95

Q: Dear colleague, please send me the reported difference in startle response for Cc1cnc(NC(=O)C2=C(O)c3ccccc3S(=O)(=O)N2C)s1 when you can.
Ans: 6.51
